Property: pIC50; scope: individual molecules
- TESTED SYSTEM: recombinant human Mcl-1 (residues 171-327) / Bim interaction (Homo sapiens (Human), UniProt Q07820)
- Sequence (Q07820 171-327): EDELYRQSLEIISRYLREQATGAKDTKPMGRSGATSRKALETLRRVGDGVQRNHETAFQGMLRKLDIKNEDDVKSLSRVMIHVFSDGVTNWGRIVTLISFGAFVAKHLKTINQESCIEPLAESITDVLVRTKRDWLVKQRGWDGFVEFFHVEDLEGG
- PROTOCOL NOTES: biochemical
- Format: binding
- TEST PARAMETERS: Mcl-1 HTRF IC50
pIC50: −log10 of the molar value.

MOLECULE	pIC50
C[C@@H]1[C@@H](C)C/C=C/[C@](C)(O)[C@@H]2CC[C@H]2CN2C[C@@]3(CCCc4cc(Cl)ccc43)COc3ccc(cc32)C(=O)NS1(=O)=O	9.74
C[C@@H]1[C@@H](C)C/C=C/[C@](O)(CS(=O)(=O)N(C)C)[C@@H]2CC[C@H]2CN2C[C@@]3(CCCc4cc(Cl)ccc43)COc3ccc(cc32)C(=O)NS1(=O)=O (single isomer, unassigned)	9.28

---

Property: pIC50; scope: individual compounds
- TESTED SYSTEM: recombinant human Mcl-1 (residues 171-327) / Bim interaction (Homo sapiens (Human), UniProt Q07820)
- PROTOCOL NOTES: biochemical
- Format: binding
- TEST PARAMETERS: TR-FRET, Mcl-1(171-327) / biotin-Bim (51-76); read-out: Mcl-1 HTRF IC50
pIC50: −log10 of the molar value.
OBSERVATION TYPE: pIC50

LINE NOTATION	READOUT VALUE
C[C@@H]1[C@@H](C)C/C=C/[C@@](O)(C2CC2)[C@@H]2CC[C@H]2CN2C[C@@]3(CCCc4cc(Cl)ccc43)COc3ccc(cc32)C(=O)NS1(=O)=O	9.84
Cc1cc(C[C@]2(O)/C=C/C[C@H](C)[C@@H](C)S(=O)(=O)NC(=O)c3ccc4c(c3)N(C[C@@H]3CC[C@H]32)C[C@@]2(CCCc3cc(Cl)ccc32)CO4)no1	9.12
CC[C@@H]1CCCC[C@](O)(COC)[C@@H]2CC[C@H]2CN2C[C@@]3(CCCc4cc(Cl)ccc43)COc3ccc(cc32)C(=O)NS1(=O)=O	8.56
CO[C@@]1(CC(=O)N2CCCC2)/C=C/C[C@H](C)[C@@H](C)S(=O)(=O)NC(=O)c2ccc3c(c2)N(C[C@@H]2CC[C@H]21)C[C@@]1(CCCc2cc(Cl)ccc21)CO3	10.11
C[C@@H]1[C@@H](C)CCC[C@]2(CC(N3CCCC3)=NO2)[C@@H]2CC[C@H]2CN2C[C@@]3(CCCc4cc(Cl)ccc43)COc3ccc(cc32)C(=O)NS1(=O)=O	9.52

---

- TESTED SYSTEM: recombinant human Mcl-1 (residues 171-327) / Bim interaction (Homo sapiens (Human), UniProt Q07820)
- PROTOCOL NOTES: biochemical
- Assay type: binding
- TEST PARAMETERS: 0.1 nM Mcl-1(171-327), 0.05 nM biotin-Bim (51-76); read-out: Mcl-1 HTRF IC50

COMPOUND	IC50 [nM]
CO[C@@]1(CN2CC3(COC3)C2)/C=C/C[C@H](C)[C@@H](C)S(=O)(=O)NC(=O)c2ccc3c(c2)N(C[C@@H]2CC[C@H]21)C[C@@]1(CCCc2cc(Cl)ccc21)CO3	0.113
COCC[C@@H]1[C@@H](C)C/C=C/[C@@](CN2CCN(C(C)(C)C)CC2)(OC)[C@@H]2CC[C@H]2CN2C[C@@]3(CCCc4cc(Cl)ccc43)COc3ccc(cc32)C(=O)NS1(=O)=O	0.084
CO[C@@]1(CN2CCN3CCN(C(=O)CCS(=O)(=O)c4ccccc4)C[C@@H]3C2)/C=C/C[C@H](C)[C@@H](C)S(=O)(=O)NC(=O)c2ccc3c(c2)N(C[C@@H]2CC[C@H]21)C[C@@]1(CCCc2cc(Cl)ccc21)CO3 [Example 233]	0.516
CCO[C@@]1(CN2CCN3CCCC[C@@H]3C2)/C=C/CC[C@@H](CC)S(=O)(=O)NC(=O)c2ccc3c(c2)N(C[C@@H]2CC[C@H]21)C[C@@]1(CCCc2cc(Cl)ccc21)CO3	1.64
CC(C)CO[C@]1(CN2CCN(C3COC3)CC2)/C=C/C[C@H](C)[C@@H](C)S(=O)(=O)NC(=O)c2ccc3c(c2)N(C[C@@H]2CC[C@H]21)C[C@@]1(CCCc2cc(Cl)ccc21)CO3	0.172
CO[C@]1(CN2CCN3CC[C@H](F)C[C@@H]3C2)/C=C/C[C@H](C)[C@@H](C)S(=O)(=O)NC(=O)c2ccc3c(c2)N(C[C@@H]2CC[C@H]21)C[C@@]1(CCCc2cc(Cl)ccc21)CO3 (single isomer, unassigned) [Example 325]	0.18
COCCN(C)C1CN(C[C@]2(OC)/C=C/C[C@H](C)[C@@H](C)S(=O)(=O)NC(=O)c3ccc4c(c3)N(C[C@@H]3CC[C@H]32)C[C@@]2(CCCc3cc(Cl)ccc32)CO4)C1	0.083
CO[C@@]1(CN2CCN(C3COC3)CC2)/C=C/C[C@H](C)[C@@H](C)S(=O)(=O)NC(=O)c2ccc3c(c2)N(C[C@@H]2CC[C@H]21)C[C@@]1(CCCc2cc(Cl)ccc21)CO3	0.071
C[C@@H]1[C@@H](C)C/C=C/[C@]2(CN3CCOC[C@@H]3CO2)[C@@H]2CC[C@H]2CN2C[C@@]3(CCCc4cc(Cl)ccc43)COc3ccc(cc32)C(=O)NS1(=O)=O	0.249
